Reported viability at 1 µM values follow for various compounds
Assay: in vitro
Details: human, % of cell viability compared to control, 3. measurement, HepG2, 1 µM

Compound: COc1ccc2cc3[n+](cc2c1OCc1cccc(C)c1)CCc1cc2c(cc1-3)OCO2 [16c, 9-O-(3-methylbenzyl)berberine chloride]
viability at 1 µM: 99.8%

Compound: COc1ccc2cc3[n+](cc2c1OCc1ccc(Br)cc1)CCc1cc2c(cc1-3)OCO2 [16g, 9-O-(4-brombenzyl)berberine chloride]
viability at 1 µM: 85%

Compound: COc1ccc2cc3[n+](cc2c1OCc1ccc(C)cc1)CCc1cc2c(cc1-3)OCO2 [16d, 9-O-(4-methylbenzyl)berberine chloride]
viability at 1 µM: 76.5%

Compound: COc1ccc2cc3[n+](cc2c1OCc1ccccc1Br)CCc1cc2c(cc1-3)OCO2 [16e, 9-O-(2-brombenzyl)berberine chloride]
viability at 1 µM: 98.5%

Compound: COc1ccc2cc3[n+](cc2c1OCc1cccc(Br)c1)CCc1cc2c(cc1-3)OCO2 [16f, 9-O-(3-brombenzyl)berberine chloride]
viability at 1 µM: 90.5%

Compound: COc1ccc2cc3[n+](cc2c1OCc1cccc(Cl)c1)CCc1cc2c(cc1-3)OCO2 [16h, 9-O-(3-chlorbenzyl)berberine chloride]
viability at 1 µM: 87.2%

Compound: COc1ccc2cc3[n+](cc2c1OCc1ccc(Cl)c(Cl)c1)CCc1cc2c(cc1-3)OCO2 [16k]
viability at 1 µM: 85.7%

* * *

Reported viability at 1 µM values follow for various molecules
Assay: in vitro
Details: human, % of cell viability compared to control, 3. measurement, HepG2, 1 µM

Molecule: COc1ccc2cc3[n+](cc2c1OCc1ccccc1C)CCc1cc2c(cc1-3)OCO2 [16b, 9-O-(2-methylbenzyl)berberine chloride]
viability at 1 µM (%): 99.4
//
Molecule: COc1ccc2cc3[n+](cc2c1OCc1ccccc1)CCc1cc2c(cc1-3)OCO2 [16a, 9-O-benzylberberine chloride]
viability at 1 µM (%): 96.4
//
Molecule: COc1ccc2cc3[n+](cc2c1OCc1ccc(Cl)cc1)CCc1cc2c(cc1-3)OCO2 [16i, 9-O-(4-chlorbenzyl)berberine chloride]
viability at 1 µM (%): 100

* * *

Assay: in vitro
Details: human, % of cell viability compared to control, 2. measurement, HepG2, 50 µM
Observable: viability at 50 µM (%)

Compound: COc1ccc2cc3[n+](cc2c1OCc1ccc(C)cc1)CCc1cc2c(cc1-3)OCO2 [16d, 9-O-(4-methylbenzyl)berberine chloride]
Recorded Value: 41.4
//
Compound: COc1ccc2cc3[n+](cc2c1OCc1ccc(Cl)c(Cl)c1)CCc1cc2c(cc1-3)OCO2 [16k]
Recorded Value: 35
//
Compound: COc1ccc2cc3[n+](cc2c1OCc1ccccc1C)CCc1cc2c(cc1-3)OCO2 [16b, 9-O-(2-methylbenzyl)berberine chloride]
Recorded Value: 42.5
//
Compound: COc1ccc2cc3[n+](cc2c1OCc1ccc(Br)cc1)CCc1cc2c(cc1-3)OCO2 [16g, 9-O-(4-brombenzyl)berberine chloride]
Recorded Value: 47.8

* * *

Experiment: in vitro
Conditions: human, % of cell viability compared to control, 3. measurement, HepG2, 25 µM
Reported viability at 25 µM values follow for various molecules
Observable: viability at 25 µM (%)

Molecule: COc1ccc2cc3[n+](cc2c1OCc1ccc(C)cc1)CCc1cc2c(cc1-3)OCO2 [16d, 9-O-(4-methylbenzyl)berberine chloride]
Units Symbol: %
Recorded Value: 47.6
//
Molecule: COc1ccc2cc3[n+](cc2c1OCc1ccccc1)CCc1cc2c(cc1-3)OCO2 [16a, 9-O-benzylberberine chloride]
Units Symbol: %
Recorded Value: 50.3
//
Molecule: COc1ccc2cc3[n+](cc2c1OCc1cccc(Cl)c1)CCc1cc2c(cc1-3)OCO2 [16h, 9-O-(3-chlorbenzyl)berberine chloride]
Units Symbol: %
Recorded Value: 36
//
Molecule: COc1ccc2cc3[n+](cc2c1OCc1cccc(C)c1)CCc1cc2c(cc1-3)OCO2 [16c, 9-O-(3-methylbenzyl)berberine chloride]
Units Symbol: %
Recorded Value: 48.6
